Procedure Details: in vitro
Protocol Conditions: human, hepatocytes
Value Kind: hepatocyte CLint (µL/min/1e6 cells)
Note: unit µL/min/1e6 cells is implicit; provide only the numeric part.

These solved cases illustrate the format of a correct answer.
Molecule Smiles	hepatocyte CLint, µL/min/1e6 cells
Cc1ccc(NC(=O)c2cccc(F)c2)cc1-n1cnc2ccc(N3CCN(C)CC3)cc2c1=O	11
COc1ccccc1C(=O)Nc1ccc(C)c(-n2cnc3ccc(N4CCN(C)CC4)cc3c2=O)c1	5
Cc1ccc(C(=O)NC2CC2)cc1-n1cnc2ccc(N3CCN(C)CC3)cc2c1=O	2

Now examine the next entry.
Query `Cc1ccc(NC(=O)c2cscn2)cc1-n1cnc2ccc(N3CCN(C)CC3)cc2c1=O` yields hepatocyte CLint of 7

====

Procedure Details: Half life in rat
Assay type: ADME, organism-based
Protocol Conditions: in vivo
Value Kind: half-life (h)
Note: unit h is implicit; provide only the numeric part.

Query `Cc1ccc(C(=O)Nc2ccon2)cc1-n1cnc2ccc(N3CCN(C)CC3)cc2c1=O` yields half-life of 1.7
